All values here come from patent US20240174637A1.

- systemUnderTest: UniProt:P25098
- experimentDescription: GRK2 Degradation Assay and Western Blot in PAXF1657 cells
- Assay type: cell-based
- Design: endogenous in cells; host or cells: PAXF1657
- experimentalContext: PAXF1657, 24 h; read-out: Degradation Assay - Full Dose Response: IC50 (uM) [cell line: PAXF1657, time point: 24 h]
Where a name gives a salt, the structure may show the parent alone.
attributeMeasured: DC50 (µM)

[
  {
    "compound": "C[C@@H](NC(=O)c1cccc(NCc2nnc(-c3ccncn3)n2C)c1)c1cccc(OCCCCCCOCCN2CCN(c3ccc4c(c3)CN(C3CCC(=O)NC3=O)C4=O)CC2)c1 (stereo partly shown)",
    "numericResult": 0.04
  }
]

[A] C[C@@H](NC(=O)c1cccc(NCc2nnc(-c3ccncn3)n2C)c1)c1cccc(OCCCCCCOCCOCCNc2ccc3c(c2)CN(C2CCC(=O)NC2=O)C3=O)c1 (stereo partly shown)
[B] C[C@@H](NC(=O)c1cccc(NCc2nnc(-c3ccncn3)n2C)c1)c1cccc(OCCCCCCOCCN2CCN(c3cc4c(cc3F)C(=O)N(C3CCC(=O)NC3=O)C4=O)CC2)c1 (stereo partly shown)
Task: Which record shows the lower DC50: the first, A , or the second, B ? // caller expects the label of the chosen entry
Output: B
(B: 0.29 µM, A: 8.71 µM)

[P] C[C@@H](NC(=O)c1cccc(NCc2nnc(-c3ccncn3)n2C)c1)c1cccc(OCCCCCCOCCOCCOCCC(=O)N2CCN(c3ccc4c(c3)CN(C3CCC(=O)NC3=O)C4=O)CC2)c1 (stereo partly shown)
[Q] C[C@@H](NC(=O)c1cccc(NCc2nnc(-c3ccncn3)n2C)c1)c1cccc(OCCCCN2CCN(c3ccc4c(c3)CN(C3CCC(=O)NC3=O)C4=O)CC2)c1 (stereo partly shown)
Task: API: POST /compare with P and Q ; response names the item with higher DC50. // caller expects the label of the chosen entry
Output: P

[1] C[C@@H](NC(=O)c1cccc(NCc2nnc(-c3ccncn3)n2C)c1)c1ccc(OCCCCCCOCCOCCOCCCC(=O)N2CCN(c3ccc4c(c3)CN(C3CCC(=O)NC3=O)C4=O)CC2)cc1 (stereo partly shown)
[2] C[C@@H](NC(=O)c1cccc(NCc2nnc(-c3ccncn3)n2C)c1)c1cccc(OCCCCCCOCCOCCOCCC(=O)N2CCN(c3cc4c(cc3F)C(=O)N(C3CCC(=O)NC3=O)C4=O)CC2)c1 (stereo partly shown)
[3] C[C@@H](NC(=O)c1cccc(NCc2nnc(-c3ccncn3)n2C)c1)c1cccc(OCCCN2CCN(c3ccc4c(c3)CN(C3CCC(=O)NC3=O)C4=O)CC2)c1 (stereo partly shown) [Compound D123, hydrochloride]
Task: Please list these in order of increasing DC50. Thank you! Submit the labels in the order that the ranking request calls for.
Output: 3, 1, 2
(3: 0.03 µM, 1: 0.1 µM, 2: 0.29 µM)

###

- systemUnderTest: GRK2 (Homo sapiens, UniProt P25098)
- Sequence (P25098 1-689): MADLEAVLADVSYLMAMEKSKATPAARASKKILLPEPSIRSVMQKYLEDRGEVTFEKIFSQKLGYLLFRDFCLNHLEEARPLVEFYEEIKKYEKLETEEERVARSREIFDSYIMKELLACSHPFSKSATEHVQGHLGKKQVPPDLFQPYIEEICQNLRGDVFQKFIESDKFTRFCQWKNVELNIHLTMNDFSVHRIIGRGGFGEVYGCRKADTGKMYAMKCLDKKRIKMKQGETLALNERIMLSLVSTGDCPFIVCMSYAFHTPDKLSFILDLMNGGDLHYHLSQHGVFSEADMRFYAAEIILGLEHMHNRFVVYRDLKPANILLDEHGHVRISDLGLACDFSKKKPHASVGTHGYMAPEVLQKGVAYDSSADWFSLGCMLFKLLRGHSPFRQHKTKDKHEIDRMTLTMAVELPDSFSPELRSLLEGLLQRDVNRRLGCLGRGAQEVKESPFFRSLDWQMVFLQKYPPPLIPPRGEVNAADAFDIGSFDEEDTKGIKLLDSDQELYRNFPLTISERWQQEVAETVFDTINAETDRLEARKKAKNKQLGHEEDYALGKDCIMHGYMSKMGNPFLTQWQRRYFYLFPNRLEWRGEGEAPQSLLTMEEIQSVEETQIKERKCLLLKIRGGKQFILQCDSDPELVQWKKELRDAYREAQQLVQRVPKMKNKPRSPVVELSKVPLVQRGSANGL
- experimentDescription: GRK2 Degradation Assay and Western Blot in PAXF1657 cells
- Type: cell-based
- Design: endogenous in cells; host or cells: PAXF1657
- experimentalContext: Conc 1 uM; read-out: Degradation Assay - 3 point: Degradation (%)
attributeMeasured: inhibition at 1 µM (%)

Example compounds with recorded inhibition at 1 µM:
[
  {
    "compound": "Cc1ncsc1-c1ccc(CNC(=O)[C@@H]2C[C@@H](O)CN2C(=O)[C@@H](NC(=O)CCCCCOCCOCCOCCCCCCOc2cccc([C@H](C)NC(=O)c3cccc(NCc4nnc(-c5ccncn5)n4C)c3)c2)C(C)(C)C)cc1",
    "unitAbbreviation": "%",
    "numericResult": 12
  },
  {
    "compound": "C[C@@H](NC(=O)c1cccc(NCc2nnc(-c3ccncn3)n2C)c1)c1cccc(OCCCCCCOCCOCCOCCCCCC(=O)Nc2cccc3c2CN(C2CCC(=O)N(C)C2=O)C3=O)c1 (some centres unmarked)",
    "unitAbbreviation": "%",
    "numericResult": 51
  }
]

[a] Cn1c(CNc2cccc(C(=O)NCc3cccc(OCCCCCOCCCOCC(=O)N4CCN(c5ccc6c(c5)CN(C5CCC(=O)NC5=O)C6=O)CC4)c3)c2)nnc1-c1ccncn1 (centres unmarked)
[b] C[C@@H](NC(=O)c1cccc(NCc2nnc(-c3ccncn3)n2C)c1)c1cccc(OCCCCCn2cc(CCCCC(=O)Nc3cccc4c3CN(C3CCC(=O)NC3=O)C4=O)nn2)c1 (some centres unmarked)
[c] C[C@@H](NC(=O)c1cccc(NCc2nnc(-c3ccncn3)n2C)c1)c1cccc(OCCCCCOCCCOCCNc2ccc3c(c2)CN(C2CCC(=O)NC2=O)C3=O)c1 (some centres unmarked)
Task: Please list these in order of increasing inhibition at 1 µM. Thank you! Submit the labels in the order that the ranking request calls for.
Output: b, a, c
